Assay: Metabolic stability in human liver microsomes assessed as compound degradation incubated for 240 mins by LC/MS analysis
Assay type: ADME, Microsome
Details: read-out: Drug degradation
Quantity: metabolised at 4 h (%)
Entry rule: numbers only, all in %.

• NC(=O)[C@H](CCC1CCCCC1)NC(=O)c1ccc(CNC(=O)c2cnn(-c3ccccc3)c2N)cc1 = 66.9

Lab note: next molecule to report on.
**Query** Give metabolised at 4 h for Nc1c(C(=O)NCc2ccc(C(=O)NCCCC3CCCCC3)cc2)cnn1-c1ccccc1
**Result** 38.2

====

Molecular target: Mitogen-activated protein kinase 14 (Homo sapiens)
Sequence (Q16539 whole entry, the tested form may be a part): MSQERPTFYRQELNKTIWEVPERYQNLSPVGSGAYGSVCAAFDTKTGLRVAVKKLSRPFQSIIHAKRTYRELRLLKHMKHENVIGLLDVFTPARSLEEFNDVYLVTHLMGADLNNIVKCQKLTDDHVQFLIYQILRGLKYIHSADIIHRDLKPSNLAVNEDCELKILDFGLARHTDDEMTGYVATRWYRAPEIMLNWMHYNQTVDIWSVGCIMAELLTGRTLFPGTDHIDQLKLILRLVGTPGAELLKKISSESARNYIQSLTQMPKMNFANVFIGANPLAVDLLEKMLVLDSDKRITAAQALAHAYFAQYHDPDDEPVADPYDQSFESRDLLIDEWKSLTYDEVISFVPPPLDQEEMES
Assay: Inhibition of recombinant human His-tagged P38 alpha MAPK (1 to 360 residues) expressed in Escherichia coli incubated for 60 mins by [gamma-33P]ATP based scintillation counting method
Quantity: IC50

Previously resolved entries follow.
* Cc1ccc(C(=O)NC2(C(N)=O)CC2)cc1NC(=O)c1ccc(-c2ccccc2Cl)s1 | 59 nM
* CC(C)(NC(=O)c1ccc(CNC(=O)c2cnn(-c3ccccc3)c2)cc1)C(N)=O | > 500 nM
* O=C(NC1CC1)c1ccc(CNC(=O)c2cnn(-c3ccccc3)c2C(F)(F)F)cc1 | > 500 nM
* CC(NC(=O)c1cnn(-c2ccccc2)c1)c1ccc(C(=O)N[C@@H](CCC2CCCCC2)C(N)=O)cc1 (some centres undefined) | 280 nM
* Cc1ccc(C(=O)N[C@@H](CCC(C)C)C(N)=O)cc1NC(=O)c1ccc(-c2ccccc2Cl)s1 | > 500 nM

**Query** Name the value of IC50 reported for NC(=O)[C@H](CCC1CCCCC1)NC(=O)c1cnc(CNC(=O)c2cc(-c3ccccc3)n[nH]2)s1 when tested on Mitogen-activated protein kinase 14 (Homo sapiens).
**Result** > 500 nM

**Query** Name the value of IC50 reported for CC(C)C[C@H](NC(=O)c1ccc(CNC(=O)c2cnn(-c3ccccc3)c2N)cc1)C(N)=O when tested on Mitogen-activated protein kinase 14 (Homo sapiens).
**Result** 360 nM

**Query** Name the value of IC50 reported for NC(=O)[C@H](CC1CCCCC1)NC(=O)c1ccc(CNC(=O)c2cnn(-c3ccccc3)c2)cc1 when tested on Mitogen-activated protein kinase 14 (Homo sapiens).
**Result** > 500 nM

**Query** Name the value of IC50 reported for Cc1ccc(C(=O)N[C@@H](CCC2CCCCC2)C(=O)N(C)C)cc1NC(=O)c1ccc(-c2ccccc2Cl)s1 when tested on Mitogen-activated protein kinase 14 (Homo sapiens).
**Result** > 500 nM
